# half-life listing for each entry below
target: CYP2D6 (Homo sapiens, UniProt P10635); test: Study 2; settings: human, plasma, oral, 30 mg
Sequence (P10635 whole entry): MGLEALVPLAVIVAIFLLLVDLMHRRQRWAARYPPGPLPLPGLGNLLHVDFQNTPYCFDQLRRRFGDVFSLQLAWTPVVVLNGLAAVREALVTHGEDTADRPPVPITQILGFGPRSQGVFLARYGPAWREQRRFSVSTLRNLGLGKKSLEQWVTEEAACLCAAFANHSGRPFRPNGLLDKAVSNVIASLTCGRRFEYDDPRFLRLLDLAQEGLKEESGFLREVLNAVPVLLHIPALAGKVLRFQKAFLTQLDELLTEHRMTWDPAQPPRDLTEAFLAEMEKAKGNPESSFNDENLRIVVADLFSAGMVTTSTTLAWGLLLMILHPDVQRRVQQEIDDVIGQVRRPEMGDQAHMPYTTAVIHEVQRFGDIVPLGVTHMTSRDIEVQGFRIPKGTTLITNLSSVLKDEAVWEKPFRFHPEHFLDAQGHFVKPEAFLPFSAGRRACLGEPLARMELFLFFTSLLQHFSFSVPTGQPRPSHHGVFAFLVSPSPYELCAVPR
Measured quantity: half-life (min)

- Mol: "COc1ccc2c(c1)[C@]13CCCC[C@@H]1[C@H](C2)N(C)CC3"
  Test target: "CYP2D6 (Homo sapiens, UniProt P10635)"
  Meas value: 429
- Mol: "CN1CC[C@@]23CCCC[C@@H]2[C@@H]1Cc1ccc(O)cc13"
  Test target: "CYP2D6 (Homo sapiens, UniProt P10635)"
  Meas value: 338

====

test system: CYP3A4; assay: Study 2; details: human, in vivo, 2 mg

- Compound: "Cc1ncc2n1-c1ccc(Cl)cc1C(c1ccccc1F)=NC2 [midazolam, reference compound]"
  Endpoint unit: "h"
  half-life: 5.12
